# Tested System: HLA B*5802 (Homo sapiens, UniProt P01889, A329T/C349S/D201E/D98Y/E176V/E187L/E204Q/E69T/G107R/I218V/I90N/K202T/L105A/N104I/N87E/Q89R/Q94S/R106L/R155S/R180L/R86G/S101N/S121W/S35A/S48A/V127L/V306I/V36M/Y140S/Y91M)
# Assay type: binding
The entries below come with measured Normalized average relative binding affinity(ARB) values attached.
Metric: Normalized average relative binding affinity(ARB)

Sequence Record | Measured Result
XXXXXWXXX [3064.0119] | 0.29
XXXXXIXXX [3064.0108] | 0.072
XXXXEXXXX [3064.0084] | 0.23
XXXMXXXXX [3064.0071] | 0.44
XXXXWXXXX [3064.0099] | 1.0
XXXXXXIXX [3064.0128] | 0.058
XXXXXYXXX [3064.0120] | 0.64
XXXXVXXXX [3064.0098] | 0.87
XXXXXXKXX [3064.0129] | 0.031
XXXXMXXXX [3064.0091] | 0.42
XXXEXXXXX [3064.0064] | 0.18
XXXXDXXXX [3064.0083] | 0.12

----------
A collection of sequences and their measured Normalized average relative binding affinity(ARB)
# Tested System: HLA A*3001 (Homo sapiens, UniProt P04439, D140H/D185E/E176W/F33S/G80R/H175R/K168Q/R138E/R41S)
# Test Name: biochemical
# Type: binding
Metric: Normalized average relative binding affinity(ARB)

Sequence Record | Measured Result
XXXGXXXXX [3064.0066] | 0.50
XXXXXXDXX [3064.0123] | 0.014
XXXNXXXXX [3064.0072] | 0.31
XXXXXXXSX [3064.0156] | 0.23
XXXXXMXXX [3064.0111] | 0.18

----------
# Tested System: HLA B*5401 (Homo sapiens, UniProt P01889, A329T/C349S/D138N/D201E/E176V/E187T/E204Q/E69G/I76V/K202T/L119W/R155S/R180L/S121T/S35A/S48A/V127L/V306I/V36M/Y140L)
# Format: binding
just bin them by Normalized average relative binding affinity(ARB): bottom: < 0.1; middle: ≥ 0.1 and < 0.3; top: ≥ 0.3

Sequence Record | Label
XXXXXXNXX [3064.0132] | top
XXXFXXXXX [3064.0065] | top
XXXXXXTXX [3064.0137] | top
XXXXAXXXX [3064.0081] | middle
XXXXXSXXX [3064.0116] | middle
XXXXXXXCX [3064.0142] | top
XXXXXNXXX [3064.0112] | middle
XXXXXXAXX [3064.0121] | top
XXXKXXXXX [3064.0069] | top
XXXXWXXXX [3064.0099] | middle
XXXXTXXXX [3064.0097] | bottom
XXXXXHXXX [3064.0107] | top
XXXXXXGXX [3064.0126] | bottom
XXXSXXXXX [3064.0076] | middle
XXXXXEXXX [3064.0104] | bottom
XXXXVXXXX [3064.0098] | bottom
XXXXXXDXX [3064.0123] | middle
XXXXXXRXX [3064.0135] | middle
XXXXXVXXX [3064.0118] | middle
XXXHXXXXX [3064.0067] | middle
